Test system: COLO 205 colon
TEST PROTOCOL: NCI tumour cell line growth inhibition, 48 h
ASSAY READOUT: TGI

Please review the entries below; each comes with its answer.
compound=O=C(CC(=O)Nc1cccc(C(=O)O)c1)Nc1cccc(C(=O)O)c1 data_value="> 100 µM"
compound=CS(=O)(=O)Nc1ccc(N2Cc3cnc4ccc5[nH]ccc2c5c34)cc1 data_value="32.2 µM"
compound=O=C1N=c2ccccc2=C1c1c(O)[nH]c2ccccc12 data_value="> 100 µM"
compound="COc1ccc2c(c1)CCC1C2CC[C@@]2(C)C1CC1=CC(COC(C)=O)C3C(=O)c4ccccc4C(=O)C3C12 (stereo not given in full)" data_value="> 100 µM"

I'd like to know its TGI. The compound in question is `O=c1[nH]c(-c2ccc3ccccc3c2)nc2ccccc12`
> 100 µM

###

The reader will find reported TGI values listed item by item below.
Test system: HOP-62 NSCLC
TEST PROTOCOL: NCI tumour cell line growth inhibition, 48 h

Look over these answered cases.
compound="COc1cc(/C=C2\\CCC(C)C3C2=NN(C(C)=O)C3c2cc(OC)c(OC)c(OC)c2)cc(OC)c1OC (stereo unspecified)" data_value="> 100 µM"
compound=CS(=O)(=O)Nc1ccc(N2Cc3cnc4ccc5[nH]ccc2c5c34)cc1 data_value="59.2 µM"
compound=NC(N)=NCCN=C(N)N data_value="> 100 µM"
compound=CCc1nc(N)nc(N)c1-c1ccc(Cl)c(Cl)c1 data_value="> 100 µM"
compound=O=C(O)/C=N\Nc1nc2ccccc2[nH]1 data_value="> 100 µM"

So what's the measured TGI for this one? `COc1ncnc(C2CC2)c1-c1ncc2cnn(Cc3ccc(-c4nc(C(F)(F)F)cn4C(C)C)cc3)c2n1`
> 100 µM

###

Tested on: SNB-19 CNS
TEST PROTOCOL: NCI tumour cell line growth inhibition, 48 h
Recorded TGI values for a group of molecules are listed next.

molecule=CCOc1nc(-c2ccccc2)cc2c(O)c(-c3nnco3)[nH]c(=O)c12 assay_readout=TGI data_value="> 62.4 µM"

I am curious: what TGI value has been reported for CC1=CC(/C=C(\C)CCCc2ccoc2)C2(OC(=O)C(C)=C2O)[C@H]2C1CC[C@@H]2C (stereo partly specified) ?
42.6 µM

Need TGI of COc1ccc(C2CC(=O)CC(c3ccc(OC)cc3)C23C(=O)NC(=O)NC3=O)cc1 (stereo unspecified) , thanks.
> 100 µM

###

Test system: NCI-H460 lung
TEST PROTOCOL: NCI tumour cell line growth inhibition, 48 h
ASSAY READOUT: TGI (µM)
# unit: µM | format: bare number

compound=COc1cc(C(=O)c2cc(C)c3[nH]c4ccc(Cl)cc4c3c2C)cc(OC)c1OC assay_readout=TGI reading_unit=µM data_value=3.74

// TGI lookup, key: O=Cc1ccc2c(c1)CC1(C2)Cc2ccc3c(c2C1)CCC3 (stereo not given)
38.7

# input compound: `C/C(=C\CCc1ccoc1)CC/C=C(\C)CCCC1=CC(=O)OC1` ; wanted: its TGI
27.8

###

Tested on: OVCAR-4 ovarian
TEST PROTOCOL: NCI tumour cell line growth inhibition, 48 h
ASSAY READOUT: TGI

compound="CC(C)(C)C(=O)OCOP(=O)(OCOC(=O)C(C)(C)C)C1CCCN(O)C1=O (stereo not drawn)" data_value="59.7 µM"
compound=CCCCc1c(OC)cc(O)c2c1C(=O)c1[nH]c(C(=O)O)c(O)c(=O)c1C2=O data_value="> 100 µM"
compound="CCCCCCCCCC/C=C/CC(=O)SCCNC(=O)CCNC(=O)[C@@H](O)C(C)(C)COP(=O)(O)OP(=O)(O)OCC1OC(n2cnc3c(N)ncnc32)C(O)C1OP(=O)(O)O (stereo partly drawn)" data_value="> 10 µM"
compound=CCOC(=O)C1(Cc2ccc3c(c2)CCC3)Cc2cc3c(cc2C1)CCC3 data_value="87.9 µM"
compound="CC(=O)Nc1ccc(C(=O)NN2C(=O)C(Cl)C2c2ccccc2)cc1 (stereo not drawn)" data_value="> 100 µM"

Suppose we examine the compound O=NN(CCCl)C(=O)NC1CCSc2ccccc21 (stereo not drawn) ; what TGI value has been reported?
> 100 µM

What TGI value was documented for this compound, `O=S(=O)([O-])c1ccc2c(c1)-c1nc-2nc2[n-]c(nc3nc(nc4[n-]c(n1)c1ccc(S(=O)(=O)[O-])cc41)-c1cc(S(=O)(=O)[O-])ccc1-3)c1ccc(S(=O)(=O)[O-])cc21.[Cu+2].[Na+]` ?
> 80.4 µM

Entry under review: `Cc1ccc(NC(=O)c2c(C)nc(=O)n3c2N(/N=C/c2ccc(Cl)cc2)CC3)cc1` . Reported TGI?
32 µM

The measurements presented in this section are drawn from PubChem BioAssay (NCI).
